Test system: SKOV3
Assay: Primary qHTS to identify gynecologic anti-cancer compounds using libraries of approved drugs and bioactive compounds (AID 1345084); note: nearly all actives have a fitted effect of over 55% in size; note: potency is the fitted concentration of half-maximal effect
Settings: Gynecologic cancer cell panel viability, ATPlite luminescence, 48 h; series mostly up to 57.5 µM
Inconclusive results are not listed. The source made the active and inactive calls. Calls come from the whole dose curve; as a rule, active = well fitted cell-killing curve with a large enough effect; inconclusive = small, poorly fitted or top-dose-only effect, or effect the other way; inactive = flat fitted curve, though single readings scatter.
Endpoint Label: Potency

These recorded examples may help you get a feel for the data.
CC[C@H]1C2CC3[C@@H]4N(C)c5ccccc5[C@]45C[C@@H]([C@H]2[C@H]5O)N3[C@@H]1O
inactive
C[C@]12CC[C@H](O)C[C@@]1(O)CC[C@@H]1[C@@H]2CC[C@]2(C)[C@@H](c3ccc(=O)oc3)CC[C@]12O
inactive
C=C1[C@@]23C(=O)O[C@H](C)[C@]24O[C@@]2(C(=C)[C@]5(C=CC(=O)OC5(C)C)CC[C@]32C)[C@H](O)[C@@]1(C)OC4=O
inactive
CN1CCCCC1Cn1cc(C(=O)c2cc([N+](=O)[O-])ccc2I)c2ccccc21 (stereo not drawn)
inactive
C[C@]12CC[C@@H](O)C[C@@H]1CC[C@@H]1[C@@H]2CC[C@]2(C)C(=O)[C@@H](Br)C[C@@H]12
inactive

The compound identified as C[C@@H]1O[C@@H](O[C@H]2CC[C@@]3(C)C(CC[C@@H]4C3CC[C@]3(C)[C@@H](C5=CC(=O)OC5)CC[C@]43O)C2)[C@H](O)[C@H](O)[C@H]1O (stereo partly drawn) registered its Potency at 2 µM (active)

The compound identified as `C[C@@H]1CN(Cc2ccc(F)cc2)CCN1C(=O)COc1ccc(Cl)cc1NC(N)=O` registered its Potency at 3.16 µM (active)

The compound identified as C=C[C@H]1CN2CCC1C[C@H]2[C@H](O)c1ccnc2ccccc12 (stereo partly drawn) registered its Potency at inactive

====

Experiment: qHTS assay for small molecule disruptors of the mitochondrial membrane potential - 1 hr assay (AID 651754); note: nearly all actives have a fitted effect of over 35% in size
Settings: series mostly up to 92.2 µM
From the text: National Center for Advancing Translational Sciences [NCATS] NIH Chemical Genomics Center [NCGC] National Institutes of Environmental Health Sciences [NIEHS] National Toxicology Program [NTP] Mitochondrial membrane potential (MMP), one of the parameters for mitochondrial function, is generated by mitochondrial electron transport chain that creates an electrochemical gradient by a series of redox reactions. […] The dye accumulates in the mitochondria of healthy cells as aggregates, with red fluorescence. […]
Inconclusive results are not listed. Calls of active or inactive are those of the source. Calls follow the shape of the full dose curve.
Result category, one only: active, inactive

Cc1cc(O)c2c(c1)C(=O)c1cc(O)cc(O)c1C2=O
active

Exercise: Dear all, I need the recorded test outcome for `CCOC(=O)c1ccccc1N` , thank you.
Solution: inactive

====

Assay: Cell Viability - LYMP2-010 (AID 981);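 note: cells exposed to compound for 24 hours at 37 °C; nearly all actives have a fitted effect of over 55% in size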
Conditions: LYMP2-010 lymphoblastoid cell viability, qHTS; series mostly up to 92.2 µM
Records with an inconclusive call do not appear. Activity calls are given as the source filed them. The call rests on the fitted dose curve; in most records, active means well fitted cell-killing curve with a large enough effect; inconclusive means small, poorly fitted or top-dose-only effect; inactive means flat fitted curve, though single readings scatter.
Result category, one only: active, inactive

Solved cases (4 shown):
CC(C)COC(=O)c1ccccc1C(=O)OCC(C)C
inactive
O=Cc1ccccc1
inactive
COC(=O)c1ccccc1C(=O)OC
inactive
Oc1ccccc1O
active

Exercise: Dear all, I need the recorded test outcome for CC(C)(c1ccc(OCC2CO2)cc1)c1ccc(OCC2CO2)cc1 (stereo unspecified) , thank you.
Solution: inactive

Exercise: Dear all, I need the recorded test outcome for `Oc1c(Cl)c(Cl)c(Cl)c(Cl)c1Cl` , thank you.
Solution: inactive

Exercise: Dear all, I need the recorded test outcome for `CC(=O)/C=C/c1ccccc1` , thank you.
Solution: inactive

Exercise: Dear all, I need the recorded test outcome for `Cc1ccccc1O` , thank you.
Solution: inactive

Exercise: Dear all, I need the recorded test outcome for `c1ccc(Nc2ccc3ccccc3c2)cc1` , thank you.
Solution: inactive

Exercise: Dear all, I need the recorded test outcome for `CCOc1cc(C=O)ccc1O` , thank you.
Solution: inactive

Exercise: Dear all, I need the recorded test outcome for `Oc1ccccc1Cl` , thank you.
Solution: inactive
